- TEST TARGET: Alpha-1A adrenergic receptor (Homo sapiens, UniProt P35348)
- Sequence (P35348 whole entry): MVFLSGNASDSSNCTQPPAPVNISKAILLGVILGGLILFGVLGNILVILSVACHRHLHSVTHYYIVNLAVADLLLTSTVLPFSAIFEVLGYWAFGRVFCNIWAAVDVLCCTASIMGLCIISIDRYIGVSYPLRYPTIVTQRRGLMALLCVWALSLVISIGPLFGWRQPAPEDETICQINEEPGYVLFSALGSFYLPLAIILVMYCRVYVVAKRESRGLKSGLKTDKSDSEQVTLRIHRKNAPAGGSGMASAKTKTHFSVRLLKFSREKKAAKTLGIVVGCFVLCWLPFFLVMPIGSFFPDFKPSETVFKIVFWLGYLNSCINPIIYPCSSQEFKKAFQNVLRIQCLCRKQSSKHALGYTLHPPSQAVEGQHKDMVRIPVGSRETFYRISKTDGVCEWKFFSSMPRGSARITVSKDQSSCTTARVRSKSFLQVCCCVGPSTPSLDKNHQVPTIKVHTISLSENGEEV
- PROTOCOL TEXT: Binding affinity to human cloned adrenergic alpha-1A receptor by radioligand binding assay
EXPERIMENTAL ENDPOINT: pKi
One number for each entry, as −log10 of the molar value.

IN: Can you share its pKi? I mean this compound: O=C(CCCN1C2CCC1CC(O)(c1ccc(Cl)cc1)C2)c1ccc(F)cc1 (stereo unspecified)
OUT: 7.41

Origin of measurements: ChEMBL document CHEMBL1148503
